target_of_assay: histaminergic H1 receptor (Homo sapiens)
assay_notes: Binding assay H1 (h), [3H]pyrilamine, HEK-293 cells
Parameters: expressed in transfected cells; host or cells: HEK-293 cells
test_settings: read-out: H1 [%]
Binary call on inhibition at 1 µM: Met from 80% upward, Not met beneath that.

{"molecule": "COc1cccc(S(=O)(=O)NCCCCN2CCC(c3noc4cc(F)ccc34)CC2)c1 [Compound 300]", "qualitative_label": "Met"}
{"molecule": "O=S(=O)(NCCCN1CCC(c2noc3cc(F)ccc23)CC1)c1cc2cccnc2[nH]1 [Compound 357]", "qualitative_label": "Met"}
{"molecule": "O=S(=O)(NCCCCN1CCN(c2cccc3[nH]ccc23)CC1)c1cccc(F)c1 [Compound 28]", "qualitative_label": "Not met"}
{"molecule": "O=S(=O)(NCCCCN1CCC(c2noc3cc(F)ccc23)CC1)c1cccs1 [Compound 325]", "qualitative_label": "Met"}
{"molecule": "O=S(=O)(NCCN1CC=C(c2c[nH]c3ccc(F)cc23)CC1)c1cccc(F)c1 [Compound 439]", "qualitative_label": "Not met"}
{"molecule": "O=S(=O)(NCCCCN1CCN(c2nsc3ccccc23)CC1)c1ccc2cc(Cl)ccc2c1 [Compound 61]", "qualitative_label": "Met"}
{"molecule": "CC(C)(C)c1ccc(S(=O)(=O)NCCCN2CCN(c3nsc4ccccc34)CC2)cc1 [Compound 256]", "qualitative_label": "Met"}
{"molecule": "Cc1c(S(=O)(=O)NCCCCN2CCN(c3nsc4ccccc34)CC2)sc2ccc(F)cc12 [Compound 65]", "qualitative_label": "Met"}
{"molecule": "O=c1[nH]c2ccc(S(=O)(=O)NCCCCN3CCN(c4nsc5ccccc45)CC3)cc2o1 [Compound 4]", "qualitative_label": "Met"}
{"molecule": "O=c1[nH]c2cccc(N3CCN(CCCNS(=O)(=O)c4ccc5ccccc5c4)CC3)c2[nH]1 [Compound 424]", "qualitative_label": "Not met"}
{"molecule": "O=S(=O)(NCCCCN1CCN(c2noc3ccccc23)CC1)c1ccc2ccccc2c1 [Compound 14]", "qualitative_label": "Met"}
{"molecule": "Cc1cccc(S(=O)(=O)NCCCCN2CCN(c3nsc4ccccc34)CC2)c1 [Compound 3]", "qualitative_label": "Met"}
{"molecule": "O=c1[nH]c2cccc(N3CCN(CCCNS(=O)(=O)c4cccc(F)c4)CC3)c2[nH]1 [Compound 176]", "qualitative_label": "Not met"}
{"molecule": "O=c1[nH]c2ccc(S(=O)(=O)NCCCCN3CCN(c4noc5ccccc45)CC3)cc2o1 [Compound 16]", "qualitative_label": "Met"}
{"molecule": "Cc1c(S(=O)(=O)NCCCCN2CCC(c3noc4cc(F)ccc34)CC2)sc2ccc(F)cc12 [Compound 101]", "qualitative_label": "Met"}
{"molecule": "O=S(=O)(NCCCCN1CCN(c2cccc3[nH]ccc23)CC1)c1cc2ccc(Cl)cc2s1 [Compound 363]", "qualitative_label": "Not met"}

====

Below, each of the molecules is paired with its reported inhibition at 1 µM value.
target_of_assay: histaminergic H1 receptor (Homo sapiens, UniProt P35367)
Sequence (P35367 whole entry): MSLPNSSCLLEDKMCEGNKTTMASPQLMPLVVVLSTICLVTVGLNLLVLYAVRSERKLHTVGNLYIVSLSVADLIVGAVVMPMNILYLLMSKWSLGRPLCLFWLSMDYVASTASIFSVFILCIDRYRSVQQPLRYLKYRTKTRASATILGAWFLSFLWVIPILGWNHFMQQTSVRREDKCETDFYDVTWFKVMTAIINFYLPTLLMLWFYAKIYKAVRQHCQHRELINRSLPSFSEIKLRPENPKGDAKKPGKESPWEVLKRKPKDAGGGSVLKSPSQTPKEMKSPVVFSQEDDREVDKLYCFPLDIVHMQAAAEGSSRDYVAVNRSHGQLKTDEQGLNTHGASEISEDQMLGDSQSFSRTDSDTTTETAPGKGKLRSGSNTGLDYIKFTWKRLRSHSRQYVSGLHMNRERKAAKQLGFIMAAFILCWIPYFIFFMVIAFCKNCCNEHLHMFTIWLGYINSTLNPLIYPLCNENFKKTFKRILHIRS
assay_notes: Binding assay H1 (h), [3H]pyrilamine, HEK-293 cells
Set-up: expressed in transfected cells; host or cells: HEK-293 cells
test_settings: read-out: H1 [%]
measurement_label: inhibition at 1 µM (%)

{"smiles_repr": "O=S(=O)(NCCCN1CCN(c2nsc3ccccc23)CC1)c1cccc2ccccc12", "target_of_assay": "histaminergic H1 receptor (Homo sapiens, UniProt P35367)", "observed": 92}
{"smiles_repr": "O=S(=O)(NCCCN1CCN(c2nsc3ccccc23)CC1)c1ccc2ccccc2c1", "target_of_assay": "histaminergic H1 receptor (Homo sapiens, UniProt P35367)", "observed": 93}
{"smiles_repr": "O=S(=O)(NCCCCN1CCC(c2noc3cc(F)ccc23)CC1)c1ccc2c(c1)OCCO2", "target_of_assay": "histaminergic H1 receptor (Homo sapiens, UniProt P35367)", "observed": 95}
{"smiles_repr": "O=S(=O)(NCCCCN1CCN(c2noc3ccccc23)CC1)c1cccc2ccccc12", "target_of_assay": "histaminergic H1 receptor (Homo sapiens, UniProt P35367)", "observed": 84}
{"smiles_repr": "O=S(=O)(NCCCCN1CCN(c2noc3ccccc23)CC1)c1cc2ccc(Cl)cc2s1", "target_of_assay": "histaminergic H1 receptor (Homo sapiens, UniProt P35367)", "observed": 94}
{"smiles_repr": "O=S(=O)(NCCCN1CCN(c2nsc3ccccc23)CC1)c1ccc(C(F)(F)F)cc1", "target_of_assay": "histaminergic H1 receptor (Homo sapiens, UniProt P35367)", "observed": 91}
{"smiles_repr": "O=S(=O)(NCCCCN1CCN(c2nsc3ccccc23)CC1)c1cc2ccc(Cl)cc2s1", "target_of_assay": "histaminergic H1 receptor (Homo sapiens, UniProt P35367)", "observed": 97}
{"smiles_repr": "N#Cc1cccc(S(=O)(=O)NCCCN2CCN(c3nsc4ccccc34)CC2)c1", "target_of_assay": "histaminergic H1 receptor (Homo sapiens, UniProt P35367)", "observed": 90}
{"smiles_repr": "Cc1cccc(S(=O)(=O)NCCN2CCC(c3noc4cc(F)ccc34)CC2)c1", "target_of_assay": "histaminergic H1 receptor (Homo sapiens, UniProt P35367)", "observed": 62}
{"smiles_repr": "O=S(=O)(NCCCCN1CCC(c2noc3cc(F)ccc23)CC1)c1ccc2c(c1)OCO2", "target_of_assay": "histaminergic H1 receptor (Homo sapiens, UniProt P35367)", "observed": 84}
{"smiles_repr": "O=S(=O)(NCCCCN1CCN(c2cccc3[nH]ccc23)CC1)c1cc2ccccc2s1", "target_of_assay": "histaminergic H1 receptor (Homo sapiens, UniProt P35367)", "observed": 56}
{"smiles_repr": "O=S(=O)(NCCCN1CCN(c2nsc3ccccc23)CC1)c1cccc(Cl)c1", "target_of_assay": "histaminergic H1 receptor (Homo sapiens, UniProt P35367)", "observed": 97}
{"smiles_repr": "O=S(=O)(NCCCN1CCN(c2nsc3ccccc23)CC1)c1cccc2scnc12", "target_of_assay": "histaminergic H1 receptor (Homo sapiens, UniProt P35367)", "observed": 92}
{"smiles_repr": "O=S(=O)(NCCCCN1CCC(c2noc3cc(F)ccc23)CC1)c1csc2ccccc12", "target_of_assay": "histaminergic H1 receptor (Homo sapiens, UniProt P35367)", "observed": 90}
{"smiles_repr": "Cc1[nH]c2ccc(Cl)cc2c1C1=CCN(CCCNS(=O)(=O)c2cccc(O)c2)CC1", "target_of_assay": "histaminergic H1 receptor (Homo sapiens, UniProt P35367)", "observed": 60}
{"smiles_repr": "O=S(=O)(NCCCCN1CCC(c2noc3cc(F)ccc23)CC1)c1cc2ccccc2s1", "target_of_assay": "histaminergic H1 receptor (Homo sapiens, UniProt P35367)", "observed": 86}
{"smiles_repr": "O=S(=O)(NCCCN1CCN(c2nsc3ccccc23)CC1)c1cccc(C(F)(F)F)c1", "target_of_assay": "histaminergic H1 receptor (Homo sapiens, UniProt P35367)", "observed": 97}
